Give measured PBM binding z-score for each item. Keep answers brief.
# Test system: PPARg:RXRa IVT, anti-PPARg (NR concentration 270 nM, RXRa partner concentration 90 nM)
# ASSAY OVERVIEW: PBM binding z-score (relative to random genomic background probes); higher = stronger binding; sequences stand for … in GC…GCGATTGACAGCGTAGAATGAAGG

-- ask Entry TCTCGGAGGCCACGAAAGGTCAGAGCTCGACATC : reported PBM binding z-score = ?
-- reply 1.96

-- ask Entry ATCTCTAGGTAAAGAGAGTTCAGTGAATGCAAAT : reported PBM binding z-score = ?
-- reply 1.38

-- ask Entry TAGCCTAGGTCATTCAGGGGCCAGTAGAGAAAGC : reported PBM binding z-score = ?
-- reply 2.66

-- ask Entry ACAGACAGGTGAGTGTAGGTAACTCAGCTGGACG : reported PBM binding z-score = ?
-- reply 1.24

-- ask Entry GCTTGTAGAGCAAGGTTAAGAAAGACTAAGCTAA : reported PBM binding z-score = ?
-- reply 1.72

-- ask Entry CCTACTGGGCCAAAAAGCTCATTGATGCCGATAA : reported PBM binding z-score = ?
-- reply 2.11

-- ask Entry AGTCAAAGTCCAGGACGAGGTAACGTAAAGCACG : reported PBM binding z-score = ?
-- reply -0.000589

-- ask Entry TCTAGCAGGCCAGAGGGTCACCCAAGAGGTACGG : reported PBM binding z-score = ?
-- reply 0.974

-- ask Entry GCTTGTAGATCAAGGTGAAGAAAGACTAAGCTAA : reported PBM binding z-score = ?
-- reply 1.6

-- ask Entry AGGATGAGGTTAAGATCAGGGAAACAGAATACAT : reported PBM binding z-score = ?
-- reply 0.973

-- ask Entry GCAGACAGATGAAACGCAGGTAACTCAGGGTGGC : reported PBM binding z-score = ?
-- reply -0.767

-- ask Entry CCTAGTTGGTCAGAAGGTCACACACCGGATATGA : reported PBM binding z-score = ?
-- reply 2.85

-- ask Entry CATACAGGGTCAGCTAGGGCAGAGTAGGGACGGC : reported PBM binding z-score = ?
-- reply 2.7

-- ask Entry CCACCAAGGTGAACAAGGTCGTTGATTACTATTC : reported PBM binding z-score = ?
-- reply 2.55

-- ask Entry CCTCGCAGGACAGAAGGTCAGAGCTGTCCGCTTT : reported PBM binding z-score = ?
-- reply 0.104

-- ask Entry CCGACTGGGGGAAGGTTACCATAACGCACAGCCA : reported PBM binding z-score = ?
-- reply 2.1

-- ask Entry ATCTCTAGGTAACAAGCTCAGTGAAAGAGAGGAC : reported PBM binding z-score = ?
-- reply 2.48

-- ask Entry ACCTCTAGGTAAGACTCAGTTCAGTGAAGAACGC : reported PBM binding z-score = ?
-- reply 0.243

-- ask Entry CTAACTAGGTCAAGGACAGTGAATCTCCGCACGC : reported PBM binding z-score = ?
-- reply 8.66

-- ask Entry CGTCAAAGTTCAACTAAGGTAACGTTAAGCACGC : reported PBM binding z-score = ?
-- reply 2.1

-- ask Entry CCTACTGGGCCAAAAAGGTCATTGCTGCCGATAA : reported PBM binding z-score = ?
-- reply 4.29

-- ask Entry CCTAGCAGGCCAGGGTCACTCAAGCATTTCGCTT : reported PBM binding z-score = ?
-- reply 0.98

-- ask Entry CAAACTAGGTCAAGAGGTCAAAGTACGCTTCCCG : reported PBM binding z-score = ?
-- reply 8.65

-- ask Entry CAAACTGGGTCAAGAGGTCAAAGTCCGCTTCCCG : reported PBM binding z-score = ?
-- reply 8.28

-- ask Entry CGGACTGGGGCAAGGTTACCATAACGCACAGCCA : reported PBM binding z-score = ?
-- reply 5.59

-- ask Entry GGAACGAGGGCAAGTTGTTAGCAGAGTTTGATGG : reported PBM binding z-score = ?
-- reply 2.94

###

# Test system: PPARg:RXRa 270nM:90nM, anti-RXR (NR concentration 270 nM, RXRa partner concentration 90 nM)
# ASSAY OVERVIEW: PBM binding z-score (relative to random genomic background probes); higher = stronger binding; sequences stand for … in GC…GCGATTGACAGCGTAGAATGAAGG
Hi, to clarify the labels: T covers PBM binding z-score from 3 upward, F covers anything below 3.

-- ask Could you tell me if the measured PBM binding z-score of CCGAGTAGGTTATGGGGCATTCGGGCAACGGTGA reaches 3 or more?
-- reply T

-- ask Could you tell me if the measured PBM binding z-score of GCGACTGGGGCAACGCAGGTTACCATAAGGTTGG reaches 3 or more?
-- reply F

-- ask Could you tell me if the measured PBM binding z-score of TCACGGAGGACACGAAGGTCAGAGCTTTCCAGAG reaches 3 or more?
-- reply F

-- ask Could you tell me if the measured PBM binding z-score of ACTATTAGATGAGACGAGGGCAACCGATAGGTTG reaches 3 or more?
-- reply F

-- ask Could you tell me if the measured PBM binding z-score of TCATATAGGCAAAAGGTGAAAGTCGGTGTGGTAA reaches 3 or more?
-- reply T

-- ask Could you tell me if the measured PBM binding z-score of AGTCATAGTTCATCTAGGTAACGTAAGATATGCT reaches 3 or more?
-- reply T

-- ask Could you tell me if the measured PBM binding z-score of TGAATGAGGTTAAAGAGCAGGGAACGTGGCGTCG reaches 3 or more?
-- reply T

-- ask Could you tell me if the measured PBM binding z-score of CATACAGGGTCAGCTAGGCCACAGTAGGGACGGC reaches 3 or more?
-- reply T

-- ask Could you tell me if the measured PBM binding z-score of TCATATAGGTAAAGGTGAAAGTCGAACGATATGA reaches 3 or more?
-- reply T

-- ask Could you tell me if the measured PBM binding z-score of CCTCGGAGGACAACAGGAGGTCAGAACTGCCAGA reaches 3 or more?
-- reply F

-- ask Could you tell me if the measured PBM binding z-score of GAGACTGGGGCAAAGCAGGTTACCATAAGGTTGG reaches 3 or more?
-- reply F

-- ask Could you tell me if the measured PBM binding z-score of AATACAGGGTCATCGTATGCCAGAGTACGCACAG reaches 3 or more?
-- reply T

###

# System: PXR homodimer (NR concentration 270 nM)
# ASSAY OVERVIEW: PBM binding z-score (relative to random genomic background probes); higher = stronger binding; sequences stand for … in GC…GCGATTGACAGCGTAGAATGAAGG
QUANTITY: PBM binding z-score
Note: the reply should be a number with no unit written.

-- ask Entry CAAACTAGCTCACAGAGGTCAAAGTCCGTGCGTA : reported PBM binding z-score = ?
-- reply 3.09

-- ask Entry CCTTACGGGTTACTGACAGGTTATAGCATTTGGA : reported PBM binding z-score = ?
-- reply 0.22

-- ask Entry ATCTCTAGGGAAGACTCAGTTCAGTGAAGAACGC : reported PBM binding z-score = ?
-- reply 1.3

-- ask Entry TCTCGGAGGACACGAAAGGTCAGAGCGCGACATC : reported PBM binding z-score = ?
-- reply 0.685

-- ask Entry CAAACTAGGTCAAGGCCAAAGTCGGTTTGTGCCA : reported PBM binding z-score = ?
-- reply -0.0922

-- ask Entry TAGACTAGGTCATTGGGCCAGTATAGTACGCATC : reported PBM binding z-score = ?
-- reply 0.294

-- ask Entry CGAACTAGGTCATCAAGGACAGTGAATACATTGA : reported PBM binding z-score = ?
-- reply 1.45

-- ask Entry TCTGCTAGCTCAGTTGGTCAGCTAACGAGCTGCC : reported PBM binding z-score = ?
-- reply -1.69

-- ask Entry CTCGAAAGTTCGTGCTCAGGTGAGTATACCAAAC : reported PBM binding z-score = ?
-- reply 0.241

-- ask Entry GATACAGGGTCAAGGGCAGAGTACGCGTATTGAT : reported PBM binding z-score = ?
-- reply 0.827

-- ask Entry CCTGGCAGGCCAATCTGGGTCACTCAAGGCTTGA : reported PBM binding z-score = ?
-- reply -0.786

-- ask Entry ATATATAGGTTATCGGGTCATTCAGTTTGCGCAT : reported PBM binding z-score = ?
-- reply 8.17

-- ask Entry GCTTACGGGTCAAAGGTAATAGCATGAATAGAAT : reported PBM binding z-score = ?
-- reply -0.182

-- ask Entry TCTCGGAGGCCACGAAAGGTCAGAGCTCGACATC : reported PBM binding z-score = ?
-- reply -0.146

-- ask Entry CGAACTAGGTCATTGACGGGACAGTGAATAGTAA : reported PBM binding z-score = ?
-- reply 0.012

-- ask Entry GGAACGAGGGCAAAGTGGATAGCATCTGTCGACG : reported PBM binding z-score = ?
-- reply 0.241

-- ask Entry TCATATAGGTAAATGATAGGTGAAAGTCCGATCT : reported PBM binding z-score = ?
-- reply 0.487

-- ask Entry TAGCCTAGGTCAGATCGTGCCAGTATACGCTATA : reported PBM binding z-score = ?
-- reply -0.569

-- ask Entry CGAACTAGGTCAGCACAGGACAGTGAAGGATGAT : reported PBM binding z-score = ?
-- reply -0.395

-- ask Entry TTACCAAGGTGAAGGTCGTTGTTCCCTCTGTAGA : reported PBM binding z-score = ?
-- reply 0.134

-- ask Entry CGTCAAAGTTCAAGGTGACGTAACAGAAAGCAGC : reported PBM binding z-score = ?
-- reply 2.3

-- ask Entry CTTGAAAGGTCGTGCTCAGGTGAGTATACCAAAC : reported PBM binding z-score = ?
-- reply 0.102

-- ask Entry TCGAGTAGGTTCCCAATGGGGCATTCAGCTTTCT : reported PBM binding z-score = ?
-- reply -1.24

-- ask Entry GATACAGGGTCAAGGCCCGAGTACGCGTATTGAT : reported PBM binding z-score = ?
-- reply 0.163

-- ask Entry CCTACTGGGCCCTTCAGAGGTCATTGATCATATG : reported PBM binding z-score = ?
-- reply 1.92

-- ask Entry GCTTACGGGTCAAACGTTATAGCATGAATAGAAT : reported PBM binding z-score = ?
-- reply -0.15

-- ask Entry GCTTTTAGATCAAGGTTAAGAAAGACTAAGCTAA : reported PBM binding z-score = ?
-- reply 0.294

-- ask Entry CGGACTAGGTCATCCAGGACAGTGAATACATTGA : reported PBM binding z-score = ?
-- reply 0.944

-- ask Entry GATACAGCGTCAAGGCCAGAGTACGCGTATTGAT : reported PBM binding z-score = ?
-- reply -0.406

-- ask Entry ATCTCTAAGTAAAGATAGTTCAGTGAATGCAAAT : reported PBM binding z-score = ?
-- reply 0.715

-- ask Entry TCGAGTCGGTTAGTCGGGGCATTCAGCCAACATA : reported PBM binding z-score = ?
-- reply -0.566

-- ask Entry TCTAGCAGGCCAGAGGGTCCCTCAAGAGGTACGG : reported PBM binding z-score = ?
-- reply -1.06

-- ask Entry CCTTACGGGTCACTCCAGGTGATAGCATCGGAGT : reported PBM binding z-score = ?
-- reply 0.145

-- ask Entry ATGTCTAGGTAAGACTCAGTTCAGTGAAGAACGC : reported PBM binding z-score = ?
-- reply 1.4

-- ask Entry ATCTCTAGGTAAAAGTTCAGTGAATCCCGAGGAT : reported PBM binding z-score = ?
-- reply 1.95

-- ask Entry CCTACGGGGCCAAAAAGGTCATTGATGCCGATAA : reported PBM binding z-score = ?
-- reply 9.18

-- ask Entry GCTTACGGGTCAAAGTTTATAGCATGAATAGAAT : reported PBM binding z-score = ?
-- reply 1.1

-- ask Entry ACTAGTAGTTGACTTAGGGCAACCGATACGACGC : reported PBM binding z-score = ?
-- reply -0.195

-- ask Entry CAAACTAGGTCAAGAGATCAAAGTCCGCTTCCCG : reported PBM binding z-score = ?
-- reply 0.0869

-- ask Entry CAAACTAGGGCAAAGGTCAAAGTCGAGCCAACCA : reported PBM binding z-score = ?
-- reply 1.29

-- ask Entry AGAACGAGGGCACGCTGAGTTGATAGCCGAGTAG : reported PBM binding z-score = ?
-- reply -0.287

-- ask Entry CCTAGCAGGCCAATCTGGGTCACACAAGGCTTGA : reported PBM binding z-score = ?
-- reply -0.6

-- ask Entry CGTCCATGGTCAATGCTAGGTCAGTGAAAGCATT : reported PBM binding z-score = ?
-- reply -0.367

-- ask Entry GTACCAAGGTGAATAGGTTGTTGATGAGTAGGCG : reported PBM binding z-score = ?
-- reply 0.241

-- ask Entry CCTACTGGGCCACCAAAGGTCATTGATTCAGTGA : reported PBM binding z-score = ?
-- reply 2.75

-- ask Entry AGAACGAGGGCACGCTGAGTTGCTAGCAGAGTAG : reported PBM binding z-score = ?
-- reply -0.605

-- ask Entry CCTGCTAGGTCATCGTCAGCTAATCTACAGTATG : reported PBM binding z-score = ?
-- reply -0.29

-- ask Entry ACAGACAGGTGATGAAGGTAGCTCAGGCTATCAT : reported PBM binding z-score = ?
-- reply 0.0281

-- ask Entry CCGACTGGGGCAAGGTTACCTTAACGCACAGCCA : reported PBM binding z-score = ?
-- reply -0.595

-- ask Entry CCCACTGGGCCACGAAAGGTCATTGATTCAGTGA : reported PBM binding z-score = ?
-- reply 1.48

-- ask Entry ATAGGTAGGTTATCGGGTCATTCAGTTTGCGCAT : reported PBM binding z-score = ?
-- reply 7.44
